Source of measurements: patent EP3248604A1

System: WNT-TCF targets
run_description: RT-qPCR gene expression in Ls174T cells
Format: cell-based, human
measurement_setup: Homo sapiens; Ls174T; 0.5µM; 16h; over DMSO-treated controls; read-out: LGR5 expression
Note to self: fold induction at 0.5 µM under 2 means YES, ties and anything higher get NO.

C[C@H]1O[C@@H](O[C@H]2[C@@H](O)C[C@H](O[C@H]3[C@@H](O)C[C@H](O[C@H]4CC[C@@]5(C)[C@H](CC[C@@H]6[C@@H]5CC[C@]5(C)[C@@H](C7=CC(=O)OC7)CC[C@]65O)C4)O[C@@H]3C)O[C@@H]2C)C[C@H](O)[C@@H]1O [Digitoxin, digitoxin, reference compound] : NO
C[C@@H]1O[C@@H](O[C@H]2C[C@@H](O)[C@]3(CO)[C@H]4[C@H](O)C[C@]5(C)[C@@H](C6=CC(=O)OC6)CC[C@]5(O)[C@@H]4CC[C@]3(O)C2)[C@H](O)[C@H](O)[C@H]1O [Ouabain, ouabain, reference compound] : NO
C[C@]12CC[C@H](O)C[C@H]1CC[C@@H]1[C@@H]2CC[C@]2(C)[C@@H](C3=CC(=O)OC3)[C@@H](O)C[C@]12O [Gitoxigenin, gitoxigenin, reference compound] : YES
C[C@H]1O[C@@H](O[C@H]2[C@@H](O)C[C@H](O[C@H]3[C@@H](O)C[C@H](O[C@H]4CC[C@@]5(C)[C@H](CC[C@@H]6[C@@H]5C[C@@H](O)[C@]5(C)[C@@H](C7=CC(=O)OC7)CC[C@]65O)C4)O[C@@H]3C)O[C@@H]2C)C[C@H](O)[C@@H]1O [Digoxin, digoxin, reference compound] : NO

Bench note: check whether CO[C@H]1C[C@H](O[C@H]2CC[C@@]3(C)[C@H](CC[C@@H]4[C@@H]3CC[C@]3(C)[C@@H](C5=CC(=O)OC5)[C@@H](OC(C)=O)C[C@]43O)C2)O[C@@H](C)[C@@H]1O [Oleandrin, oleandrin, reference compound] shows fold induction at 0.5 µM below 2
YES
